biological target: GSK3b (GST-full length GSK3b) (Homo sapiens (Human), UniProt P49841); experiment: GSK3b TR-FRET kinase assay; type: biochemical; settings: 1 nM GSK3b, 2 μM ATP, 30 minute preincubation, Table 16; read-out: GSK3-B TR-FRET BIOCHEMICAL (TR-FRET)
Sequence (P49841 whole entry): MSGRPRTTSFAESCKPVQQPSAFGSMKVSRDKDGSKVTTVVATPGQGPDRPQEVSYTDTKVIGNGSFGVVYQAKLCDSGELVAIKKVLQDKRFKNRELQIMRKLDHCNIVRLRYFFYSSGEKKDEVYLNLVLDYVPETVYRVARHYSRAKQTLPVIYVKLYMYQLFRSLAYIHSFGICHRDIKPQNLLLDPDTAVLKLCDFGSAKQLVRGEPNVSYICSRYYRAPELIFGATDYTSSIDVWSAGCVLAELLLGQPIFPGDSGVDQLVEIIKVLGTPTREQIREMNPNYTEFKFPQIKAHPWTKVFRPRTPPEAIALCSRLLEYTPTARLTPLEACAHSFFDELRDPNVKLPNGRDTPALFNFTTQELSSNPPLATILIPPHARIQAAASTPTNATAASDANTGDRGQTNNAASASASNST
METRIC: IC50

>>> experimental_result("Cc1cccc(S(=O)(=O)N2CC[C@]3(C2)C2=C(CC(C)(C)CC2=O)Nc2n[nH]cc23)c1")
"≤ 100 nM"
>>> experimental_result("CCc1cccc(N(C)c2cccc([C@]3(CC)C4=C(CC(C)(C)CC4=O)Nc4n[nH]cc43)c2)n1")
"> 5000 nM"
>>> experimental_result("CCC1(c2cccc(N(C)c3cc(C)ccn3)c2)C2=C(CC(C)(C)CC2=O)Nc2n[nH]cc21 (stereo not drawn) [Compound 945609]")
"100 to 1000 nM"
>>> experimental_result("CC1(C)CC(=O)C2=C(C1)Nc1n[nH]cc1C21CC(c2ccccc2)C1 (stereo not drawn) [Compound 917082]")
"≤ 100 nM"
>>> experimental_result("CC1(C)CC(=O)C2=C(C1)Nc1n[nH]cc1[C@]21CCO[C@H](C(C)(C)C)C1")
"100 to 1000 nM"
>>> experimental_result("CC[C@]1(c2cccc(-c3ccnc(C(F)F)c3)c2)C2=C(CC(C)(C)CC2=O)Nc2n[nH]cc21")
"100 to 1000 nM"
>>> experimental_result("CCn1nccc1S(=O)(=O)N1CCC2(CC1)C1=C(CC(C)(C)CC1=O)Nc1n[nH]cc12")
"≤ 100 nM"
>>> experimental_result("CC1(C)CC(=O)C2=C(C1)Nc1n[nH]cc1[C@]21CCCN(S(=O)(=O)Cc2ccccc2)CC1")
"100 to 1000 nM"
>>> experimental_result("CC1(C)CC(=O)C2=C(C1)Nc1n[nH]cc1C21CCC(C(=O)N2CCCC2)CC1 (stereo not drawn) [Compound 945396]")
"100 to 1000 nM"
>>> experimental_result("Cn1cc(S(=O)(=O)N2CCC3(CC2)C2=C(CC(C)(C)CC2=O)Nc2n[nH]cc23)cn1")
"≤ 100 nM"
>>> experimental_result("CC1(C)CC(=O)C2=C(C1)Nc1n[nH]cc1[C@@]21CCO[C@H](C(F)(F)F)C1")
"100 to 1000 nM"
>>> experimental_result("CCC1(c2cccc(-c3ccncc3CO)c2)C2=C(CC(C)(C)CC2=O)Nc2n[nH]cc21 (stereo not drawn)")
"≤ 100 nM"
>>> experimental_result("Cc1noc(C2CCC3(CC2)C2=C(CC(C)(C)CC2=O)Nc2n[nH]cc23)n1 (stereo not drawn)")
"100 to 1000 nM"
>>> experimental_result("CCC1(c2cccc(S(=O)(=O)C3CCOC3)c2)C2=C(CC(C)(C)CC2=O)Nc2n[nH]cc21 (stereo not drawn)")
"≤ 100 nM"
>>> experimental_result("CC1(C)CC(=O)C2=C(C1)Nc1n[nH]cc1C21CCSC1 (stereo not drawn)")
"100 to 1000 nM"
>>> experimental_result("CC1(C)CC(=O)C2=C(C1)Nc1n[nH]cc1C21CCN(S(=O)(=O)c2cc(F)ccn2)CC1")
"100 to 1000 nM"
>>> experimental_result("CC1(C)CC(=O)C2=C(C1)Nc1n[nH]cc1C21CCC(C(=O)N2CCCC2)CC1 (stereo not drawn) [Compound 945394]")
"1000 to 5000 nM"
>>> experimental_result("CC1(C)CC(=O)C2=C(C1)Nc1n[nH]cc1C21CCN(S(=O)(=O)c2cc(F)ccc2F)CC1")
"≤ 100 nM"
>>> experimental_result("COc1cccc(S(=O)(=O)N2CCC3(CC2)C2=C(CC(C)(C)CC2=O)Nc2n[nH]cc23)c1 [Compound 901468]")
"≤ 100 nM"
>>> experimental_result("CCC1(c2cccc(C3CN(C(C)=O)C3)c2)C2=C(CC(C)(C)CC2=O)Nc2n[nH]cc21 (stereo not drawn) [Compound 949131]")
"1000 to 5000 nM"
>>> experimental_result("CCC1(c2cccc(-c3cc(C)ncc3C)c2)C2=C(CC(C)(C)CC2=O)Nc2n[nH]c(C(F)(F)F)c21 (stereo not drawn)")
"≤ 100 nM"
>>> experimental_result("CCC1(c2cccc(-c3ccnc(OC(F)(F)F)c3)c2)C2=C(CC(C)(C)CC2=O)Nc2n[nH]cc21 (stereo not drawn)")
"1000 to 5000 nM"
>>> experimental_result("CCc1cccc(N(C)c2cccc(C3(CC)C4=C(CC(C)(C)CC4=O)Nc4n[nH]cc43)c2)n1 (stereo not drawn)")
"100 to 1000 nM"
>>> experimental_result("COc1ccccc1S(=O)(=O)N1CCCC2(CC1)C1=C(CC(C)(C)CC1=O)Nc1n[nH]cc12 (stereo not drawn)")
"100 to 1000 nM"
>>> experimental_result("CCC1(c2cccc(-c3cnn(C)c3)c2)C2=C(Nc3n[nH]cc31)C(F)C(C)(C)CC2=O (stereo not drawn) [Compound 957504]")
"1000 to 5000 nM"
>>> experimental_result("CC1(C)CC(=O)C2=C(C1)Nc1n[nH]cc1[C@@]21CCC[C@@H](C#N)C1")
"100 to 1000 nM"
>>> experimental_result("CC[C@]1(c2cccc(N(C)c3ccc(C(F)(F)F)nc3)c2)C2=C(CC(C)(C)CC2=O)Nc2n[nH]cc21")
"100 to 1000 nM"
>>> experimental_result("CC1(C(F)(F)F)CC(=O)C2=C(C1)Nc1n[nH]cc1C21CCOCC1 (stereo not drawn)")
"100 to 1000 nM"
>>> experimental_result("C[C@@H]1C[C@H](C)C[C@]2(C1)C1=C(CC(C)(C)CC1=O)Nc1n[nH]cc12")
"100 to 1000 nM"
>>> experimental_result("CC1(C)CC(=O)C2=C(C1)Nc1n[nH]cc1[C@]21C[C@H](OCc2ccccc2)C1")
"100 to 1000 nM"
